src = paper PMC12444563

tested-on: bovine spleen Cathepsin B (Bos taurus)
Construct: bovine spleen Cathepsin B (SigmaAldrich C6286, ≥10 units/mg protein); purchased SigmaAldrich C6286; host or cells: bovine spleen (tissue-derived)
method-summary: Cathepsin B cleavage assay (UHPLC-HRMS Orbitrap analysis)
Type: biochemical
details: replicate R3, 2 min
Starred links: 1 amine or outer side, 2 acyl side, 3 side chain; linkers in the order of their positions; H or OH if unused. Non-standard residues stand in square brackets, D forms with d. Residues, ends and D or L forms follow the SMILES beside them. *: point of attachment. Paclitaxel(2'-OCO-DMEDA) = CC(=O)O[C@H]1C(=O)[C@@]2(C)[C@H]([C@H](OC(=O)c3ccccc3)[C@]3(O)C[C@H](OC(=O)[C@H](OC(=O)N(C)CCN(C)*)[C@@H](NC(=O)c4ccccc4)c4ccccc4)C(C)=C1C3(C)C)[C@]1(OC(C)=O)CO[C@@H]1C[C@@H]2O; Fmoc = O=C(OCC1c2ccccc2-c2ccccc21)*; PABC = O=C(OCc1ccc(N[*:1])cc1)[*:2]
Answer each item with its documented % residual compound, % R3.
Only the number, expressed in %, is required.

# returns recorded % residual compound, % R3 (system: bovine spleen Cathepsin B (Bos taurus)) for CC(=O)O[C@H]1C(=O)[C@@]2(C)[C@H]([C@H](OC(=O)c3ccccc3)[C@]3(O)C[C@H](OC(=O)[C@H](OC(=O)N(C)CCN(C)C(=O)OCc4ccc(NC(=O)CNC(=O)[C@H](CC(C)C)NC(=O)[C@@H]5CCCN5C(=O)CNC(=O)OCC5c6ccccc6-c6ccccc65)cc4)[C@@H](NC(=O)c4ccccc4)c4ccccc4)C(C)=C1C3(C)C)[C@]1(OC(C)=O)CO[C@@H]1C[C@@H]2O [Compound 1, Fmoc-GPLG-PABC-diamine-PTX] (Fmoc-GPLG[PABC]-{Paclitaxel(2'-OCO-DMEDA)})
97.22

# returns recorded % residual compound, % R3 (system: bovine spleen Cathepsin B (Bos taurus)) for CC(=O)O[C@H]1C(=O)[C@@]2(C)[C@H]([C@H](OC(=O)c3ccccc3)[C@]3(O)C[C@H](OC(=O)[C@H](OC(=O)N(C)CCN(C)C(=O)OCc4ccc(NC(=O)[C@H](CCCNC(N)=O)NC(=O)[C@@H](NC(=O)OCC5c6ccccc6-c6ccccc65)C(C)C)cc4)[C@@H](NC(=O)c4ccccc4)c4ccccc4)C(C)=C1C3(C)C)[C@]1(OC(C)=O)CO[C@@H]1C[C@@H]2O [Compound 3, Fmoc-VCit-PABC-diamine-PTX]
106.03

# returns recorded % residual compound, % R3 (system: bovine spleen Cathepsin B (Bos taurus)) for CC(=O)O[C@H]1C(=O)[C@@]2(C)[C@H]([C@H](OC(=O)c3ccccc3)[C@]3(O)C[C@H](OC(=O)[C@H](OC(=O)N(C)CCN(C)C(=O)OCc4ccc(NC(=O)CNC(=O)[C@H](CC(C)C)NC(=O)[C@H](Cc5ccccc5)NC(=O)CNC(=O)OCC5c6ccccc6-c6ccccc65)cc4)[C@@H](NC(=O)c4ccccc4)c4ccccc4)C(C)=C1C3(C)C)[C@]1(OC(C)=O)CO[C@@H]1C[C@@H]2O [Compound 2, Fmoc-GFLG-PABC-diamine-PTX] (Fmoc-GFLG[PABC]-{Paclitaxel(2'-OCO-DMEDA)})
104.39

# returns recorded % residual compound, % R3 (system: bovine spleen Cathepsin B (Bos taurus)) for CC(=O)O[C@H]1C(=O)[C@@]2(C)[C@H]([C@H](OC(=O)c3ccccc3)[C@]3(O)C[C@H](OC(=O)[C@H](OC(=O)N(C)CCN(C)C(=O)OCc4ccc(NC(=O)[C@H](C)NC(=O)[C@@H](NC(=O)OCC5c6ccccc6-c6ccccc65)C(C)C)cc4)[C@@H](NC(=O)c4ccccc4)c4ccccc4)C(C)=C1C3(C)C)[C@]1(OC(C)=O)CO[C@@H]1C[C@@H]2O [Compound 4, Fmoc-VA-PABC-diamine-PTX]
98.31
